Hey, just so you know, these numbers are from the supplement of paper PMC13380429.

Could you please report measured drug sensitivity score for the items listed next?
tested on: Calu-3; experiment: drug sensitivity score (DSS) for viability; higher = more toxic; extreme values may be limits of the assay; settings: 72 h
Quick one: just the number, no unit, thanks!

Would you mind telling me what drug sensitivity score value was observed for O=C(CCCl)NCCc1ccccc1 ?
0

Would you mind telling me what drug sensitivity score value was observed for O=C(Nc1cccnc1)c1cc(-c2ccnc(F)c2)ccc1OCc1ccccc1 ?
0

Would you mind telling me what drug sensitivity score value was observed for CCCCNC(=O)[C@@H]1Cc2ccccc2N1C(=O)[C@@H](N)CC [butabindide] ?
0

Would you mind telling me what drug sensitivity score value was observed for CN1CCN(CCCCN2C(=O)CN(/N=C/c3ccc(-c4ccc(Cl)cc4)o3)C2=O)CC1 [azimilide] ?
0

Would you mind telling me what drug sensitivity score value was observed for O=C1N(c2ccccc2)c2ccccc2C1(Cc1ccncc1)Cc1ccncc1 ?
0

Would you mind telling me what drug sensitivity score value was observed for CCNC(=O)N1CCN(CCCC(c2ccc(F)cc2)c2ccc(F)cc2)CC1 [amperozide] ?
0

Would you mind telling me what drug sensitivity score value was observed for O=c1[nH]c2ccccc2c(=O)n1CCCN1CCN(c2ccccc2)CC1 ?
0

Would you mind telling me what drug sensitivity score value was observed for CCC1(c2ccc(N)cc2)CCC(=O)NC1=O (centres undefined) [aminoglutethimide] ?
0

Would you mind telling me what drug sensitivity score value was observed for CC(=O)c1cc2c(o1)C(=O)c1ccccc1C2=O ?
1.8
